Every entry's value here was drawn from the Deep4Chem optical property database.

measurement_description: solvent given as SMILES
condition: in Cc1ccccc1
// emission maximum lookup, one value per entry
A number alone suffices; assume nm.

Record excerpt, results attached:
compound	unit_annotation	emission maximum
Cc1ccc2c(c1)c1cc(C)ccc1n2-c1c(-n2c3ccccc3c3ccccc32)c(C#N)c(-n2c3ccccc3c3ccccc32)c(-n2c3ccc(C)cc3c3cc(C)ccc32)c1-n1c2ccccc2c2ccccc21	nm	480
CCCC1=Cc2nc1ccc1[nH]c(cc1CCC)c1nc(c(O)cc3[nH]c2cc3CCC)C(CCC)=C1	nm	683
CCc1c(C)c2n(c1C)[B-](F)(F)[N+]1=C(c3ccc[nH]3)c3ccccc3C1=C2C	nm	630
CN(C)c1ccc(C2=CC(c3ccccc3)=[N+]3C2=Nc2c(-c4ccc(N(C)C)cc4)cc(-c4ccccc4)n2[B-]3(F)F)cc1	nm	822
COc1ccc(N(c2ccc(OC)cc2)c2ccc3ccc4c(B(c5c(C)cc(C)cc5C)c5c(C)cc(C)cc5C)ccc5ccc2c3c54)cc1	nm	575
CCCCCCCCC1(CCCCCCCC)c2cc(-c3ccc(C(F)(F)F)cc3)ccc2-c2ccc(N(c3ccc(-n4c5ccccc5c5ccccc54)cc3)c3ccc4c(c3)C(CCCCCCCC)(CCCCCCCC)c3cc(-c5ccc(C(F)(F)F)cc5)ccc3-4)cc21	nm	427

Lab note: O=C1c2cc(-n3c4ccccc4c4ccccc43)c(-n3c4ccccc4c4ccccc43)cc2C(=O)N1c1ccccc1 gave emission maximum of 510

Lab note: CCn1c2ccccc2c2cc(-c3cc(-c4ccc5c(c4)c4ccccc4n5CC)nc(N4CCCCC4)n3)ccc21 gave emission maximum of 406

Lab note: FC(F)(F)c1cc2n(n1)[B-]1(c3ccccc3Oc3ccccc31)[n+]1ccc3ccccc3c1-2 gave emission maximum of 517

Lab note: CC(C)[Si](C#Cc1c2ccccc2c(C#Cc2c3ccccc3c(C#Cc3c4ccccc4c(C#Cc4c5ccccc5c(C#Cc5c6ccccc6c(C#C[Si](C(C)C)(C(C)C)C(C)C)c6ccccc56)c5ccccc45)c4ccccc34)c3ccccc23)c2ccccc12)(C(C)C)C(C)C gave emission maximum of 623

Lab note: CCCCCC(CC)C1(C(CC)CCCCC)c2ccccc2-c2ccc(C#Cc3cc(C#Cc4ccc5c(c4)C(C(CC)CCCCC)(C(CC)CCCCC)c4ccccc4-5)c4ccc5c(C#Cc6ccc7c(c6)C(C(CC)CCCCC)(C(CC)CCCCC)c6ccccc6-7)cc(C#Cc6ccc7c(c6)C(C(CC)CCCCC)(C(CC)CCCCC)c6ccccc6-7)c6ccc3c4c65)cc21 (configuration not stated) gave emission maximum of 513

Lab note: CC(=O)c1c2c(cc3c(N(C)C)cccc13)CCC2 gave emission maximum of 520

---

measurement_description: solvent given as SMILES
condition: in C1CCOC1
quantity_kind: emission maximum

> print(dat)
                              smiles.record     quantity.kind  result
1   C(=C\c1cnc2ccccc2n1)/c1ccc(N2CCCCC2)cc1  emission maximum  557 nm
2  Clc1ccc(/C=C/c2ccc(-c3nc4c5cccnc5c5ncccc5c4[nH]3)cc2)cc1  emission maximum  463 nm
3   O=c1c(Nc2ccccc2)c([O-])c1=[NH+]c1ccccc1  emission maximum  477 nm
4                O=C(O)c1c2ccccc2nc2ccccc12  emission maximum  418 nm
5  CCCCCCCCCCCCn1nnc(-c2ccc(C#Cc3ccc(C#Cc4ccc(-c5nnn(CCCCCCCCCCCC)n5)cc4)c4nc5c6ccccc6c6ccccc6c5nc34)cc2)n1  emission maximum  495 nm

Lab note: c1ccc(-c2nc3ccccc3nc2-c2ccccc2)cc1 gave emission maximum of 401 nm

Lab note: Nc1ccc2c(c1)C(=O)NC2=O gave emission maximum of 445 nm

Lab note: C[Si]1(c2ccccc2)C(c2ccc3c(c2)c2ccccc2n3-c2ccccc2)=C(c2ccccc2)C(c2ccccc2)=C1c1ccc2c(c1)c1ccccc1n2-c1ccccc1 gave emission maximum of 526 nm

---

measurement_description: solvent given as SMILES
condition: in c1ccncc1
// emission maximum lookup, one value per entry
A number alone suffices; assume nm.

> print(dat)
                         compound  unit.annotation  numeric.readout
1  N#CC1=C(c2ccc(-c3cccs3)s2)CCC1               nm              450

Lab note: C1=C(c2ccc(-c3cccs3)s2)CCC(c2ccccc2)C1 (configuration not stated) gave emission maximum of 417

Lab note: [C-]#[N+]c1ccc(-c2ccc(N)cc2)cc1 gave emission maximum of 415

Lab note: CC1CC=C(c2ccc(-c3cccs3)s2)CC1 (configuration not stated) gave emission maximum of 417

Lab note: CCCCCCCC(=O)Oc1ccc2c3cccc4c(OC(=O)CCCCCCC)ccc(c5cccc1c52)c43 gave emission maximum of 459.02

Lab note: [C-]#[N+]c1ccc(-c2ccc(NC)cc2)cc1 gave emission maximum of 421

Lab note: C1=C(c2ccc(-c3cccs3)s2)CCCC1 gave emission maximum of 423

---

measurement_description: solvent given as SMILES
condition: in ClC(Cl)(Cl)Cl
// emission maximum lookup, one value per entry
A number alone suffices; assume nm.

Record excerpt, results attached:
> print(dat)
                                   molecule  unit.annotation  numeric.readout
1  CCOC(=O)C1=C(C)NC2=C(C(=O)c3ccccc32)C1c1ccc(N(C)C)cc1 (stereo unspecified)               nm              475
2  CC(C)(C)c1cc2ccc3cc(C(C)(C)C)cc4c3c2c(c1)c(=O)n1c4nc2c3cc(C(C)(C)C)cc4ccc5cc(C(C)(C)C)cc(c5c43)c21               nm              520
3    N#Cc1c(-c2ccccc2)cc(-c2ccccc2)[nH]c1=S               nm              510

Lab note: CCn1c2ccccc2c2cc(/C=C/C(=O)c3ccc4c(c3)c3cc(C(=O)/C=C/c5ccc6c(c5)c5ccccc5n6CC)ccc3n4CC)ccc21 gave emission maximum of 454

Lab note: CN(C)c1ccc(/C=C2\CC/C(=C\c3ccc(N(C)C)cc3)C2=O)cc1 gave emission maximum of 478

Lab note: CN(C)c1ccc(-c2ccc3n2[B-](F)(F)[N+]2=C(c4ccccc4)C=CC2=C3C(F)(F)F)cc1 gave emission maximum of 712

---

measurement_description: solvent given as SMILES
condition: in CO
Assign rule met whenever emission maximum does not fall below 500 nm; assign rule not met whenever it does.

Textbook exercise: given the entry CCc1c(C)c2n(c1C)[B-](F)(F)[N+]1=C(NCc3ccc(OC)cc3)C=CC1=C2C , state whether its emission maximum is greater than or equal to 500 nm.
rule met

---

measurement_description: solvent given as SMILES
condition: in ClCCl
// emission maximum lookup, one value per entry
Report as: number unit

Record excerpt, results attached:
smiles_record	emission maximum
CCCCN(CCCC)c1ccc(/C=C/c2ccc3nc(-c4ccccc4)c(/C=C/c4ccc(N(C)C)cc4)nc3c2)cc1	627 nm
CC(C)c1cccc(C(C)C)c1N1C(=O)c2ccc3c4c(-c5ccc(C(=O)O)cc5)c5ccc6c7c(cc8c9cc(C(=O)O)ccc9c(c9ccc(c2c39)C1=O)c4c8c57)C(=O)N(c1c(C(C)C)cccc1C(C)C)C6=O	626 nm
COc1ccc(-c2csc(-c3ccncc3)n2)cc1	548 nm

Below: the item to evaluate.
Lab note: c1cc2ccc3ccc(-n4c5ccccc5c5ccccc54)c4ccc(c1)c2c34 gave emission maximum of 399 nm

---

measurement_description: solvent given as SMILES
condition: in ClC(Cl)Cl
// emission maximum lookup, one value per entry
A number alone suffices; assume nm.

Lab note: CCCCCCN1C(=O)c2cccc3cc(/N=C\c4nc5ccccc5s4)cc(c23)C1=O gave emission maximum of 495

Lab note: COc1ccc(-c2nc(-c3ccccc3)c(N(C)C)[se]2)cc1 gave emission maximum of 438

Lab note: [C-]#[N+]c1ccc(-c2ccc(NC)cc2)cc1 gave emission maximum of 400

---

measurement_description: solvent given as SMILES
condition: in CS(C)=O
// emission maximum lookup, one value per entry
Report as: number unit

Record excerpt, results attached:
> print(dat)
                              smiles.record  result
1  COc1ccc(-c2nc(-c3ccccc3O)c(-c3ccccc3O)n2-c2ccc(C)cc2)cc1  389 nm
2  C(/C=C/Nc1cccc2ccccc12)=[NH+]c1cccc2ccccc12  527 nm
3  C[N+]1=C(/C=C/C=C2/N(CCCc3ccccc3)c3ccccc3C2(C)C)C(C)(C)c2ccccc21  567 nm
4  FC(F)(F)c1ccc(/C=C/c2nc(/C=C/c3ccc(N(c4ccccc4)c4ccccc4)cc3)cc(/C=C/c3ccc(N(c4ccccc4)c4ccccc4)cc3)n2)cc1  599 nm
5  CCC1=C(C)C(=O)n2c1cc1c(C)c(CC(=O)O)c(C)n1c2=O  505 nm

Lab note: CC1=NN(c2ccccc2)C(=O)/C1=C/c1cn(-c2ccccc2)nc1-c1ccccc1 gave emission maximum of 437 nm

Lab note: CC(=O)O[B-]1(OC(C)=O)OC(/C=C/C=C/c2ccccc2)=CC(/C=C/C=C/c2ccccc2)=[O+]1 gave emission maximum of 558 nm

Lab note: CCC1=C(C)C(=O)n2c1cc1c(c(C)c(C(=O)OCC(C)C)n1CC(C)C)c2=O gave emission maximum of 479 nm

Lab note: N#Cc1ccc2cc[nH]c2c1 gave emission maximum of 363 nm
